- Tested on: T1, Gal4 transcriptional activation domain (AD) fused in frame with AR (yeast, UniProt P10275 1-920, limits assumed); note: unit not given here
- T1 sequence (looked up): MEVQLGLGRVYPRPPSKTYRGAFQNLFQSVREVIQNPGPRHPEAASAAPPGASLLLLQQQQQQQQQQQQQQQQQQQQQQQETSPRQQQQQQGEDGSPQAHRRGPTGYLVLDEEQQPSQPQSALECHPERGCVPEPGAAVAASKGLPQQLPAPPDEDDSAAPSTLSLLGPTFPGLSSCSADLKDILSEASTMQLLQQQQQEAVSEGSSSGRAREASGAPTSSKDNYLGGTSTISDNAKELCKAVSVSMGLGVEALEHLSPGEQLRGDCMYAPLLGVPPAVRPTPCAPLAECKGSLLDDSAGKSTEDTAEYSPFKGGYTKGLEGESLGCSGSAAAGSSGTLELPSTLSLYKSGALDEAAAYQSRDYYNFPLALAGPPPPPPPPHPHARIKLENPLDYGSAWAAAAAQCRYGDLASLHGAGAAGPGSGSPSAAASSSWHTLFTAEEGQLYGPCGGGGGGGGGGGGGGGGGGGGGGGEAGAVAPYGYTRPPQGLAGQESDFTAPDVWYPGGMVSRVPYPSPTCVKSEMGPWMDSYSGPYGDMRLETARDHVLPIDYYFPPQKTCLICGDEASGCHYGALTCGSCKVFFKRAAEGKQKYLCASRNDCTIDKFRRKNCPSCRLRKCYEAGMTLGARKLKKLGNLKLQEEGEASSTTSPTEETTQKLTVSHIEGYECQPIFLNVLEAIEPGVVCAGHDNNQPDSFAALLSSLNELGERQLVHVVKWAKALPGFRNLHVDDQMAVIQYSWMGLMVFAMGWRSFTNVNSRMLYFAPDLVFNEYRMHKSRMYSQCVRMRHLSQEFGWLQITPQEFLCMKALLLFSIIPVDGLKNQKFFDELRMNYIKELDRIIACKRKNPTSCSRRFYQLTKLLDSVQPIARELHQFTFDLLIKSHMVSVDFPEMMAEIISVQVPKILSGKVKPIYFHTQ
- Test method notes: cell-based or functional assay
Measured endpoint: β-galactosidase activity (yeast two-hybrid), RU
Answer with the value's number alone.

β-galactosidase activity (yeast two-hybrid), RU measured on M2H3 (peptide) MKLLSSIEQACDICRLKKLKCSKEKPKCAKCLKNNWECRYSPKTKRSPLTRAHLTEVESRLERLEQLFLLIFPREDLDMILKMDSLQDIKALLTGLFVQDNVNKDAVTDRLASVETDMPLTLRQHRISATSSSEESSNKGQRQLTVSEFRQSFVSEILGGGWLPLDLQPS = 6.8

Please fill in: β-galactosidase activity (yeast two-hybrid), RU reported for B18C4 (peptide) MKLLSSIEQACDICRLKKLKCSKEKPKCAKCLKNNWECRYSPKTKRSPLTRAHLTEVESRLERLEQLFLLIFPREDLDMILKMDSLQDIKALLTGLFVQDNVNKDAVTDRLASVETDMPLTLRQHRISATSSSEESSNKGQRQLTVSEFDSPWVWFGGEPGLNLLDLQPS = 1.5

// field: β-galactosidase activity (yeast two-hybrid), RU; key: M7B1 (peptide) MKLLSSIEQACDICRLKKLKCSKEKPKCAKCLKNNWECRYSPKTKRSPLTRAHLTEVESRLERLEQLFLLIFPREDLDMILKMDSLQDIKALLTGLFVQDNVNKDAVTDRLASVETDMPLTLRQHRISATSSSEESSNKGQRQLTVSEFVGWFTGMAACSYAPDLDLQPS ; value = 0.1
